What growth was measured for each of the following?
System: T-47D breast
ASSAY DETAILS: NCI-60 one-dose screen, 48 h (100 = growth as untreated, 0 = no growth, -100 = all killed)
TEST CONTEXT: 10 µM unless noted
This is part of a sample that, as a whole, favours compounds with a hit. Of some 83,000 tested, about 20% had one in any assay.
// units = %; emit number, no label

Short answer please: growth, T-47D breast, entry O=C(/C=C/c1cc(-c2ccc3c(c2)OCO3)n[nH]1)c1ccc2c(c1)OCO2
72.7

What is its growth for T-47D breast? Entry: COc1ccc2c(c1)cn1c3ccc(OC)cc3[nH]c(=O)c21
-32.2

Give growth (T-47D breast) of the following compound: Cc1c(C(=N)C(C#N)C#N)c(=N)oc2c1ccc1ccccc12
71.9

Requested read-out growth, target or system T-47D breast, entry CCc1cnc(=S)n(-c2ccccc2)c1
112

Notebook: pull reported growth for T-47D breast, entry CN(C[C@H]1Cc2c(cccc2N2CCN(Cc3ccccn3)CC2)CN1)[C@H]1CCCc2cccnc21
44.6

Query the reported growth for T-47D breast; item: C=C1CCC2C3(C)COC(c4ccc(N(C)C)cc4)OC3CCC2(C)C1C/C=C1/C(=O)OCC1O (configuration not stated)
52.1

Form entry - test system: T-47D breast; read-out: growth; compound: COc1ccc(/C=C2/C(=O)NC(SCC(=O)N3CCN(c4cc5c(cc4F)c(=O)c(C(=O)O)cn5C4CC4)CC3)=NC2N)cc1OC (configuration not stated)
110

Please state recorded growth (tested on T-47D breast) of C=C[C@@H]1C[C@@H]2Cc3ccccc3N1O2
110

Report growth for C=CCSc1n[nH]c(-c2cccs2)n1 tested on T-47D breast.
94.8

API: value(readout= growth, system= T-47D breast, query= Cc1nc2cncc(C#Cc3cncc(C(=O)Nc4ccc(CN5CCN(C)CC5)c(C(F)(F)F)c4)c3)c2nc1C )
26.6

Param readout= growth; system= T-47D breast; entry= c1ccc(Nc2nc(Nc3ccccc3)nc(Nc3ccccc3)n2)cc1 ; returns value.
71.9

Item CCN(CC)c1ccc(C(=N)c2ccc(N(CC)CC)cc2)cc1 with T-47D breast - growth?
-27.9

Enter reported growth observed with T-47D breast for CCOC(=O)c1cn2c3c(cccc3c1=O)C(=O)/C(=C/c1cccc(Cl)c1Cl)C2
75.5

# get_value(readout= growth, system= T-47D breast) for CCOC(=O)C1C(=O)C=C(c2ccc(OC)cc2)CC1c1sc(N(C)Cc2ccccc2)nc1Cl (configuration not stated)
64.2

State its growth on T-47D breast: COc1ccc(Cn2cc3c(c2-c2cc(OC)c(OC)c(OC)c2)CCc2cnoc2-3)cc1
41.2

Fill in the recorded growth for this compound, with T-47D breast as test system: CCCCCCCC[C@@H](O)CC(=O)N[C@@H](CC(N)=O)C(=O)N[C@@H](CCC(N)=O)C(=O)N[C@@H](CC(=O)c1cc(C)cc(O)c1C(=O)c1c(O)cccc1O)CC(C)C
-3.58

Lab note: need growth with T-47D breast for entry O=C(CSc1nc2ccccc2[nH]1)c1ccc(N2CCOCC2)cc1 , please look it up.
94.1

Query growth on T-47D breast for C=C1CCC2C3(C)COC(C)(C)OC3CCC2(C)C1C/C=C1/C(=O)OCC1Oc1ccccc1OC (configuration not stated)
54.3

Write down the reported growth of COc1ccc(-c2nc(/C=C3/C(=O)Nc4ccc(F)cc43)c3ccccn23)cc1 , test system: T-47D breast.
100

Give growth (T-47D breast) of the following compound: Nc1cc2c([nH]c[n+]2CC#CCCl)c(SCC#CCCl)n1
-60.1

Which measured growth belongs to NC(=O)CCCN1C/C(=C\c2ccccc2)C(=O)c2ccccc21 , tested on T-47D breast?
83.2

Notebook entry, T-47D breast assay: growth of COc1ccc(/C=C2\CN(Cc3cn(CCNc4ccnc5cc(Cl)ccc45)nn3)C/C(=C\c3ccc(OC)c(OC)c3)C2=O)cc1OC = ?
32.9

Request body: readout growth, system T-47D breast, query CCCCN(CCCC)c1ccc(C(=N)c2ccc(N(CCCC)CCCC)cc2)cc1 . Return the value.
-31.3

Which growth is reported with T-47D breast for this entry: N=C(N)c1ccc(-c2ccc(-c3cncc4ccccc34)s2)cc1F ?
-63.3

Reported growth for T-47D breast, given COc1ccc(C(=O)NC(=O)Nc2cc3c(cc2F)/C(=C/c2[nH]c(C)c(CCC(=O)O)c2C)C(=O)N3)c(F)c1 ?
47.8

Please state recorded growth (tested on T-47D breast) of COc1cc(-c2nn(-c3cccc(NC(=O)c4ccc(N5CCOCC5)c(C(F)(F)F)c4)c3)cc2-c2ccncc2)ccc1Cl
27.5

Report growth for CC(C)C(C(=O)NCCN1CCOCC1)N1C(=O)/C(=C/c2ccc(Br)cc2)SC1=S (configuration not stated) tested on T-47D breast.
94.1

Missing value: growth, T-47D breast, entry O=C1c2c(c3c4ccccc4n(CCCCCCBr)c3c3[nH]c4ccccc4c23)C(=O)N1O . Fill in?
4.32

Recall the recorded growth for NC1N=C(SCC(=O)N2CCN(c3cc4c(cc3F)c(=O)c(C(=O)O)cn4C3CC3)CC2)NC(=O)/C1=C/c1ccc(Cl)cc1 (configuration not stated) with T-47D breast and state it.
97.9

What measured growth is associated with CCOc1cc2c(Cl)ncnc2c(OCC)c1OCC on T-47D breast?
76.3

Look up growth with T-47D breast for this compound: N=C(N)c1ccc(-c2ccc(-c3ccc4ccccc4c3)s2)cc1
97.6

What reported growth corresponds to O=C(c1ccccc1)C1OC1c1ccc([N+](=O)[O-])cc1 (configuration not stated) on T-47D breast?
52.6

Requested read-out growth, target or system T-47D breast, entry c1cc2[nH]ncc2cc1-c1nc2ccc3[nH]ncc3c2c2c1CCC2
56.8

Given the entry CCCCCCCCC(C)OC(=O)c1nn(C(C)=O)c2ccccc12 (configuration not stated) , what growth was observed with T-47D breast?
88.6

Write down the reported growth of CCN(CC)CCOc1ccc(Cl)c(C)c1 , test system: T-47D breast.
104

I'm curious: which growth was measured for COc1ccc(C2C(C#N)=C(N)Oc3c2ccc2ccccc32)cc1 (configuration not stated) tested on T-47D breast?
31

Lab note: need growth for C=C1CCC2C(C)(CO)C(O)CCC2(C)C1C/C=C1/C(=O)OCC1Oc1ccccc1C (configuration not stated) on T-47D breast, anyone have it?
84.9

All values here come from PubChem BioAssay (NCI).
